The values you see were collected from ChEMBL document CHEMBL1201862.

test system: K562; test: NCI tumour cell line growth inhibition, 48 h
Active and inactive are the calls of the source. Rule as the data show it: active = GI50 up to about 1.1 µM and inactive = higher.
Pick one and only one: Yes for active, No for inactive

Some solved cases for reference:
# molecule, class.name
measured = [
    ("CCn1c(=O)c2c3cc(O)ccc3oc2c2ccc(O)cc21", "No"),
    ("COC(=O)C(Cc1nc2ccc(Cl)cc2nc1O)/C(=N\\N)C(=O)Nc1cc(C)c(Cl)cc1S(=O)(=O)O (stereo unspecified)", "No"),
    ("CCCC[S+]([O-])CCC(N)P(=O)(O)O (stereo unspecified)", "No"),
    ("C1COCCN1.CN(C)c1ccc(-c2c(C#N)c(N)nc(S)c2C#N)cc1", "No"),
    ("Clc1ncc(Cl)c(Cl)n1", "Yes"),
]

Recorded test call requested for Cc1ccc2c(c1)c(=O)c1c(NCCN(C)C)ccc3nnn2c31
No

Write down the call the test reported for this molecule. Item: CN(/N=C/C=N/N(C)C1=NCCN1)C1=NCCN1
No

Field: outcome | Entry: O=C(O)c1c(-c2ccccc2)c(=O)[nH]c2ccccc12
No

Identify the outcome logged in this assay for the molecule shown: O=C1C(N2CCN(CCOCCO)CC2)=C(Cl)C(=O)c2ncccc21
No

Could you please tell me the result logged for COc1cc2c3cc1Oc1c(OC)c(OC)cc4c1C(Cc1ccc(O)c(c1)-c1cc(ccc1OC)CC3N(C)CC2)N(C)CC4 (stereo unspecified) in this assay?
No

What call does the record list for CCC(C)(O)c1cn(-c2ccc(S(=O)(=O)O)cc2)nn1 (stereo unspecified) ?
No

====

tested on: OVCAR-3; test: NCI tumour cell line growth inhibition, 48 h
Calls of active or inactive are those of the source. No stated cut-off is given here; in the data, active = GI50 up to about 1.1 µM and inactive = higher.
measurement.kind: GI50

Check out these entries, answers already filled in.
# molecule, GI50
measured = [
    ("C=C(C)C(O)CCC1(C)C=Cc2c(c(C)cc3c2[nH]c2ccccc23)O1 (stereo not given)", "7.52 µM (inactive)"),
    ("COc1ccccc1C(=O)NO", "> 100 µM (inactive)"),
    ("CC(=O)/C(=C\\Nc1c(C)n(C)n(C)c1=O)C(=O)c1ccccc1", "> 50 µM (inactive)"),
    ("CC(Nc1ccc(Cl)cc1)c1ccncc1 (stereo not given)", "> 100 µM (inactive)"),
    ("O=c1[nH]c2nc3ccccc3c(=O)n2/c1=C/c1ccccc1", "22 µM (inactive)"),
    ("CN(CCN1CCCC1)C1CCc2cc(Cl)c(Cl)cc2C1 (stereo not given)", "17.1 µM (inactive)"),
]

Look at this molecule and give its reported GI50. NC(=O)SCC(=O)Nc1ccc2ncccc2c1
35.5 µM (inactive)

Would you mind telling me what GI50 value was observed for CC(=O)O[C@H]1C(=O)[C@@]2(C)[C@H]([C@H](OC(=O)c3ccoc3)[C@]3(O)C[C@H](OC(=O)[C@H](O)[C@@H](NC(=O)c4ccccc4)c4ccccc4)C(C)=C1C3(C)C)[C@]1(OC(C)=O)CO[C@@H]1C[C@@H]2O ?
0.0296 µM (active)

What value of measured GI50 is listed for CC(C)C(=O)N[C@@H](C)C(=O)N(Cc1ccc2ccccc2c1)N=O ?
62.7 µM (inactive)

I have this molecule here, CC(C)NC(C)C(C)c1ccccc1 (stereo not given) , and I need its recorded GI50.
> 100 µM (inactive)
